# Protocol details: Oral bioavailability in monkey at 2.5 mg/kg
# Type: ADME, organism-based, Macaca mulatta
# Study conditions: rhesus monkey, in vivo
Catalogue of bioavailability values
State the answer as a number, implicitly in %.

N[C@H](COc1cncc(/C=C/c2ccncc2)c1)Cc1c[nH]c2ccccc12 : 12

Now, please, on to the next molecule.
Noted for N[C@H](COc1cnc(Cl)c(/C=C/c2ccncc2)c1)Cc1c[nH]c2ccccc12 : its bioavailability reads 12

* * *

Catalogue of half-life values
# Protocol details: Half life in mouse at 10 mg/kg
# Format: ADME, organism-based
# Design: dose 10 mg/kg
# Study conditions: in vivo
State the answer as a number, implicitly in min.

Noted for N[C@H](CNc1cnc(Cl)c(/C=C/c2ccncc2)c1)Cc1c[nH]c2ccccc12 : its half-life reads 36

Noted for N[C@H](CCc1cnc(Cl)c(/C=C/c2ccncc2)c1)Cc1c[nH]c2ccccc12 : its half-life reads 12
